- MEASURED_TARGET: GluA2Qflip AMPA receptor (Homo sapiens, UniProt P42262)
- Sequence (P42262 25-883 isoform P42262-2 limits assumed): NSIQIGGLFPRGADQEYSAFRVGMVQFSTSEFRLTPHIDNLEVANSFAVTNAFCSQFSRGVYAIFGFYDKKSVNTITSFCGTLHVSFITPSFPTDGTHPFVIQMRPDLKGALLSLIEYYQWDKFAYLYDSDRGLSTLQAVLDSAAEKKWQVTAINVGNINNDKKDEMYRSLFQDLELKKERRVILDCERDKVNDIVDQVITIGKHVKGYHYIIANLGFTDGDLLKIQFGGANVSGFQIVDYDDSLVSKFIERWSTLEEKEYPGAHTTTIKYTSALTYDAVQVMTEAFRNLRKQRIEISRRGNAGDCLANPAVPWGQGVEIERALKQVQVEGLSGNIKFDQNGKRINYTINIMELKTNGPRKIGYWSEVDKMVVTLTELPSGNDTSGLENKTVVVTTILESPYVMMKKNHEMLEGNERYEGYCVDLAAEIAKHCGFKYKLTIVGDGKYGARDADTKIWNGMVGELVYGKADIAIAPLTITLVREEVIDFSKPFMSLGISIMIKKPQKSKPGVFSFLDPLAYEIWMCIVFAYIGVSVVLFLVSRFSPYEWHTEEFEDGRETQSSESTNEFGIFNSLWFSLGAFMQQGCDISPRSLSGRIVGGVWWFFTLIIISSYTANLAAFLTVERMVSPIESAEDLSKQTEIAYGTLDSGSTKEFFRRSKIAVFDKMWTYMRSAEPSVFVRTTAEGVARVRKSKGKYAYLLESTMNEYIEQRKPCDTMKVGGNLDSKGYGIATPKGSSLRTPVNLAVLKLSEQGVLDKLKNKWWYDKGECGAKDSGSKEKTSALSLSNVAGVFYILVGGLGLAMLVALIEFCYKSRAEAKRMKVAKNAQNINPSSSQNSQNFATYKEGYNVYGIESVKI
- PROTOCOL_TEXT: Solution-flow amplitude measurement of whole-cell current
- Type: cell-based
- TEST_PARAMETERS: Ki (closed-channel), solution-flow technique, GluA2Qflip in HEK-293 cells; 100 μM glutamate; amplitude A/AI, eq 6
Parameter: Ki. Scope: all listed entries.
# value in µM; strip the unit string

{"SMILES_NOTATION": "Nc1ccc(C2=NNC(=O)Cc3cc4c(cc32)OCO4)cc1", "MEASURED_TARGET": "GluA2Qflip AMPA receptor (Homo sapiens, UniProt P42262)", "READOUT_KIND": "Ki", "ASSAY_RESULT": 25}

Next up:
Prompt line: For the compound shown here, `CC1=NN=C(c2ccc(N)cc2)c2cc3c(cc2C1)OCO3` , give the reported Ki.
Response line: 14

Where these numbers come from: paper PMC3206322
